- test.system: TRIP8b-HCN1c40 (Homo sapiens (Human), UniProt Q8IYB4)
- Sequence (Q8IYB4 265-626): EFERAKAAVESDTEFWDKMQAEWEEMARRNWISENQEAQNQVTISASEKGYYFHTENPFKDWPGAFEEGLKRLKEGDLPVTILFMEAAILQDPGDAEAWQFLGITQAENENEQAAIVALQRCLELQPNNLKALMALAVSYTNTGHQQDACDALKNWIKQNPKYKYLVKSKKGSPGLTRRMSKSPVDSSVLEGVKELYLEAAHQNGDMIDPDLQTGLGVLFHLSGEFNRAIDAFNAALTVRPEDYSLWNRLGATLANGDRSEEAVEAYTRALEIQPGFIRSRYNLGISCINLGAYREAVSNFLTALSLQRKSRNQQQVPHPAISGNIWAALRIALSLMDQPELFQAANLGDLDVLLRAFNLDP
- method.summary: TRIP8b-HCN1c40 AlphaScreen assay
- Type: binding
- details: read-out: TRIP8b-HCN1c40 Alphascreen IC50
pIC50: −log10 of the molar value.
outcome.measure: pIC50

As a guide, the following entries are already answered.
- compound: "CN1CCN(Cc2cc(-c3cccc(S(C)(=O)=O)c3)ccc2OCC(=O)Nc2ccc(Cl)c(Cl)c2)CC1 [NUCC-0202022]"
  pIC50: 5.57
- compound: "C=Cc1ccccc1NC(=O)COc1ccc(-c2ccc(Cl)c(Cl)c2)cc1CN1CCN(C)CC1 [NUCC-0202015]"
  pIC50: 5.96
- compound: "Cc1ccc(-c2ccc(OCC(=O)NCc3ccc(Cl)cc3)c(CN3CCC(N(C)C)CC3)c2)cc1 [NUCC-0201607]"
  pIC50: 5.26
- compound: "CN1CCN(Cc2cc(-c3ccc(Cl)cc3)ccc2OCC(=O)NCc2ccc(Cl)c(Cl)c2)CC1 [NUCC-0201977]"
  pIC50: 6.06
- compound: "COc1ccc(NC(=O)COc2ccc(-c3ccc(Cl)c(Cl)c3)cc2CN2CCN(C)CC2)cc1 [NUCC-0202019]"
  pIC50: 5.89
- compound: "Cc1cccc(-c2ccc(OCC(=O)NCc3ccc(Cl)cc3)c(CN3CC[C@H](N)C3)c2)c1 [NUCC-0201625]"
  pIC50: 5.21
- compound: "Cc1ccc(-c2ccc(OCC(=O)Nc3ccc(Cl)cc3)c(CN3CCC(N(C)C)CC3)c2)cc1 [NUCC-0201608]"
  pIC50: 5.15
- compound: "CN1CCN(Cc2cc(-c3ccc(F)cc3)ccc2OCC(=O)NCc2ccc(Cl)cc2)CC1 [NUCC-0200590]"
  pIC50: 5.27

[a] CN1CCN(Cc2cc(-c3ccc(F)cc3)ccc2OCC(=O)N(C)Cc2ccccc2)CC1 [NUCC-0201102]
[b] CN1CCN(Cc2cc(Oc3ccc(F)cc3)ccc2OCC(=O)NCc2ccc(Cl)cc2)CC1 [NUCC-0201229]
[c] CN1CCN(Cc2cc(-c3ccc(Cl)c(Cl)c3)ccc2OCC(=O)NCc2ccccc2)CC1 [NUCC-0201987]
[d] CN1CCN(Cc2cc(-c3ccc(Cl)c(C(F)(F)F)c3)ccc2OCC(=O)Nc2ccc(Cl)c(Cl)c2)CC1 [NUCC-0202023]
[e] O=Cc1cc(-c2ccc(F)cc2)ccc1O [NUCC-0201191]
[Q] Which order do these items take when sorted by rising pIC50? List them. Give me the labels in the order the question wants.
[A] a, e, b, c, d

====

- test.system: TRIP8b-HCN1c40 (Homo sapiens (Human), UniProt Q8IYB4)
- method.summary: TRIP8b-HCN1c40 AlphaScreen assay
- Format: binding
- details: read-out: TRIP8b-HCN1c40 Alphascreen IC50
outcome.measure: IC50 (µM)

- compound: "Cc1ccccc1-c1ccc(OCC(=O)NCc2ccc(Cl)cc2)c(CN2CCNCC2)c1 [NUCC-0201617]"
  unit.descriptor: "µM"
  observed.value: 7.8

[I] Cc1cccc(-c2ccc(OCC(=O)Nc3cc(O)c(O)c(O)c3)c(CN3CC[C@H](N)C3)c2)c1 [NUCC-0201628]
[II] Cc1ccc(-c2ccc(OCC(=O)N[C@H](C)c3ccccc3)c(CN3CCOCC3)c2)cc1 [NUCC-0201606]
[Q] Which value of IC50 is smaller, the one for I or the one for II ? Identify your selection by its label.
[A] I
